target: UniProtKB P0C6U8; experiment: biochemical; parameters: species or system SARS-CoV; conditions: pH 7.5
PROPERTY_LABEL: inhibition at 200 µM

O=C1c2c(O)cc(O)cc2O[C@H](c2cc(O)c(O)c(O)c2)[C@H]1O = > 30%
O=C(O[C@@H]1Cc2c(O)cc(O)cc2O[C@H]1c1cc(O)c(O)c(O)c1)c1cc(O)c(O)c(O)c1 [GCG, gallocatechin gallate] = > 80%
O=c1c(-c2ccc(O)cc2)coc2c([C@@H]3O[C@H](CO)[C@@H](O)[C@H](O)[C@H]3O)c(O)ccc12 = > 30%
O=c1c(-c2ccc(O)cc2)coc2cc(O)ccc12 = > 30%
Oc1cc(O)c2c(c1)O[C@H](c1cc(O)c(O)c(O)c1)[C@H](O)C2 [EGC, epigallocatechin] = 5%

Req: Recorded inhibition at 200 µM for "O=c1c(O)c(-c2ccc(O)c(O)c2)oc2cc(O)cc(O)c12" , please?
Resp: > 80%

* * *

target: SARS 3CL^pro (Severe acute respiratory syndrome coronavirus, UniProt P0C6U8)
PROPERTY_LABEL: Ki (µM)
Field: numeric (µM). Do not append units.

Req: I'm curious: which Ki was measured for O=C(O[C@@H]1Cc2c(O)cc(O)cc2O[C@H]1c1cc(O)c(O)c(O)c1)c1cc(O)c(O)c(O)c1 [GCG, gallocatechin gallate] tested on SARS 3CL^pro (Severe acute respiratory syndrome coronavirus, UniProt P0C6U8)?
Resp: 25

* * *

What follows is a record of IC50 for SARS 3CL^pro (Severe acute respiratory syndrome coronavirus, UniProt P0C6U8).
Field: numeric (µM). Do not append units.

Some solved entries appear below for comparison.
O=c1c(-c2ccc(O)cc2)coc2c([C@@H]3O[C@H](CO)[C@@H](O)[C@H](O)[C@H]3O)c(O)ccc12 = 381
O=c1c(O)c(-c2ccc(O)c(O)c2)oc2cc(O)cc(O)c12 = 73
O=c1c(-c2ccc(O)cc2)coc2cc(O)ccc12 = 351
O=C(O[C@@H]1Cc2c(O)cc(O)cc2O[C@H]1c1cc(O)c(O)c(O)c1)c1cc(O)c(O)c(O)c1 [GCG, gallocatechin gallate] = 47

--- query ---
Req: I'm curious: which IC50 was measured for "O=C1c2c(O)cc(O)cc2O[C@H](c2cc(O)c(O)c(O)c2)[C@H]1O" tested on SARS 3CL^pro (Severe acute respiratory syndrome coronavirus, UniProt P0C6U8)?
Resp: 364
